B1: Azoarcus group I ribozyme (parent)
chain: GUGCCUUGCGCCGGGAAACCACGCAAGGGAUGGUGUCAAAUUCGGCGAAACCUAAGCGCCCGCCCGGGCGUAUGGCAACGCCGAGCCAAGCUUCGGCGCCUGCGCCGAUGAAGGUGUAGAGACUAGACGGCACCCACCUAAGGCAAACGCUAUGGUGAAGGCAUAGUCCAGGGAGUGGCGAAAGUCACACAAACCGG

Variants of: B1
Test: reverse-splicing fitness (ratio to wild type); higher = more active; in vitro selection; Mg2+ level not given
Listed here: items and their measured reverse-splicing fitness.

{"columns": ["Mutant Code", "reverse-splicing fitness"],
 "data": [
  ["A111G A145U C150G C169A", 0.0108],
  ["A120U A145C C169A U176G", 0.00153],
  ["C82G A111C A120G A145C C150G C169G U176C", 0.00726],
  ["C82A A111G C150A C169U U176A", 0.0172],
  ["C82G A111C A120U A145C U176A", 0.0111],
  ["C82A A111C A120G A145C C150A C169U", 0.00671],
  ["A120C A145C", 0.783],
  ["C82G A111U A120C A145C C150A C169A", 0.01],
  ["A111C A120C A145U C169U", 0.189],
  ["C82U A111C A120C A145U C150U C169G U176G", 0.00521],
  ["C82A A145C C150G C169G U176G", 0.00508],
  ["A111U A145C C169U U176G", 0.0061],
  ["C82U A111C A145G C150U C169U", 0.00955],
  ["C82U A145G C150A C169A U176G", 0.00596],
  ["C82U A111U A120C A145C U176G", 0.00539],
  ["C82A A111G A120C A145U C169A", 0.00859],
  ["C82A A120U A145G C150G C169A U176C", 0.0082],
  ["C82U A111C A120U A145C C150A C169A U176A", 0.00222],
  ["C82A A111G A120C A145G C150A C169G U176A", 0.0211],
  ["C82U A111G A145G C169U U176A", 0.0117],
  ["A120U C150A", 0.245],
  ["C82G A111C A120U A145G C150U C169U U176G", 0.00262],
  ["C82U A111U A120U A145C", 0.0211],
  ["C82A A111G A120C A145U C150U U176C", 0.0248],
  ["C82G A111G A120G C150A C169G", 0.0105],
  ["C82U A111U C150G C169G U176G", 0.00532],
  ["C82G A111U A120C A145U C150A C169G U176C", 0.0247],
  ["C82U A111U A120U C150G C169A", 0.00657],
  ["C82G A111G A120U A145U C150A U176C", 0.00553],
  ["A120U C150A C169G U176C", 0.0141],
  ["C82G A120U A145C C150A C169A U176A", 0.0017]
]}

Provenance of the data: the RNAGym collection of RNA variant scans (doi:10.1093/molbev/msab373)
